These entries and their values trace back to PubChem BioAssay AID1963839.

Would you kindly list IC50 for each of these molecules?
- Tested on: 817829-284-R-J1-PDC complex spheroid viability
- experimental_details: Anticancer human tumor 817829-284-R-J1-PDC patient-derived colon adenocarcinoma cell line growth inhibition [POLQ]
- settings: curve of first compound; second compound 3.16 µM

Exam item: Determine from records and report IC50 for COc1ccc([C@@H](O)c2cc(-c3ncnc4cc(N5CCOCC5)ccc34)c(F)cc2Cl)nn1 + Nc1ccc(C#CCN(C(=O)Cc2ncc(C(F)(F)F)cc2C(F)(F)F)c2ccc(F)cc2)nn1
Marked response: 1120 nM

Exam item: Input CC1COCCN1c1cc(C2(O)CC3CCC(C2)O3)c2cnn(-c3ccn[nH]3)c2n1 (stereo unspecified) + Cc1cccc(N(C)C(=O)C2C(O)CCN2c2nc(C)cc(C(F)(F)F)c2C#N)c1 , output reported IC50.
Marked response: < 31.6 nM

Exam item: Give the reported value of IC50 for this record: CC1COCCN1c1cc(C2(O)CC3CCC(C2)O3)c2cnn(-c3ccn[nH]3)c2n1 (stereo unspecified) + Nc1ccc(C#CCN(C(=O)Cc2ncc(C(F)(F)F)cc2C(F)(F)F)c2ccc(F)cc2)nn1
Marked response: < 31.6 nM

Exam item: Return IC50 (reported value) for this molecule: CCc1c2c(nc3ccc(O)cc13)-c1cc3c(c(=O)n1C2)COC(=O)[C@]3(O)CC + Cc1cccc(N(C)C(=O)C2C(O)CCN2c2nc(C)cc(C(F)(F)F)c2C#N)c1
Marked response: < 3.16 nM

Exam item: Specify measured IC50 for COc1cc2cc(C(=O)CCC(=O)O)sc2cc1OC + Nc1ccc(C#CCN(C(=O)Cc2ncc(C(F)(F)F)cc2C(F)(F)F)c2ccc(F)cc2)nn1 .
Marked response: > 10000 nM

Exam item: Output IC50 of C=CCn1c(=O)c2cnc(Nc3ccc(N4CCN(C)CC4)cc3)nc2n1-c1cccc(C(C)(C)O)n1 + Cc1cccc(N(C)C(=O)C2C(O)CCN2c2nc(C)cc(C(F)(F)F)c2C#N)c1
Marked response: 258 nM

* * *

- System: 817829-284-R-J1-PDC complex spheroid viability
- experimental_details: Anticancer human tumor 817829-284-R-J1-PDC cell line growth inhibition [POLQ]; active = viability on the fitted dose curve at most 10% of control; inactive = the rest;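 also: spheroids exposed to compounds for 7 days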
- settings: second compound 1 µM; first compound 10 µM
Please state which outcome applies, choosing from active, inactive

Exam item: For CCCS(=O)(=O)Nc1ccc(F)c(C(=O)c2c[nH]c3ncc(-c4ccc(Cl)cc4)cc23)c1F + Cc1cccc(N(C)C(=O)C2C(O)CCN2c2nc(C)cc(C(F)(F)F)c2C#N)c1 , what call appears in the results of this test?
Marked response: active

Exam item: Called result for C=CC(=O)N1CCN(c2nc(=O)n(-c3c(C)ccnc3C(C)C)c3nc(-c4c(O)cccc4F)c(F)cc23)C(C)C1 (stereo not given) + Cc1cccc(N(C)C(=O)C2C(O)CCN2c2nc(C)cc(C(F)(F)F)c2C#N)c1
Marked response: inactive

Exam item: How was CCc1cc2c(N3CCc4c(cc(Cn5ccnc5)cc4-c4cn(C)nc4C(F)(F)F)C3=O)ccnc2c(OC)n1 + Cc1cccc(N(C)C(=O)C2C(O)CCN2c2nc(C)cc(C(F)(F)F)c2C#N)c1 classified in this test?
Marked response: inactive

Exam item: Tell me the recorded outcome of this test for CC(C)n1c(=O)n(C)c2cnc3cc(F)c(-c4ccc(OCCCN5CCCCC5)nc4)cc3c21 + COC1C(OC(N)=O)C(O)C(Oc2ccc3c(O)c(NC(=O)c4ccc(O)c(CC=C(C)C)c4)c(=O)oc3c2C)OC1(C)C .
Marked response: inactive

Exam item: Assay outcome for CC1COCCN1c1cc(C2(O)CC3CCC(C2)O3)c2cnn(-c3ccn[nH]3)c2n1 (stereo not given) + Cc1cccc(N(C)C(=O)C2C(O)CCN2c2nc(C)cc(C(F)(F)F)c2C#N)c1 : what was it?
Marked response: active
